Values compiled from ChEMBL document CHEMBL1148082.

Species on record: Homo sapiens
Assay: Inhibition of actin polymerization in fMLP-stimulated human neutrophils assessed as positive fluorescence signal at 1 uM
test readout: inhibition

compound: CC(=O)OC(C)(C)/C=C/C(=O)[C@](C)(O)[C@H]1[C@H](O)C[C@@]2(C)[C@@H]3CC=C4[C@@H](C=C(O)C(=O)C4(C)C)[C@]3(C)C(=O)C[C@]12C
result: 24.7%
//
compound: CC(C)(O)CCC(=O)[C@](C)(O)[C@H]1[C@H](O)C[C@@]2(C)[C@@H]3CC=C4[C@@H](C[C@H](O)C(=O)C4(C)C)[C@]3(C)C(=O)C[C@]12C
result: 82.8%
//
compound: CC(C)(O)CCC(=O)[C@@](C)(O)C1[C@H](O)C[C@@]2(C)[C@@H]3CC=C4C(C=C(O)C(=O)C4(C)C)[C@]3(C)C(=O)C[C@]12C (stereo partly drawn)
result: 79.2%
